TEST SYSTEM: 5-HT2C receptor (Homo sapiens)
Construct: expressed in transfected cells; host or cells: HEK293T
Sequence (P28335 33-458): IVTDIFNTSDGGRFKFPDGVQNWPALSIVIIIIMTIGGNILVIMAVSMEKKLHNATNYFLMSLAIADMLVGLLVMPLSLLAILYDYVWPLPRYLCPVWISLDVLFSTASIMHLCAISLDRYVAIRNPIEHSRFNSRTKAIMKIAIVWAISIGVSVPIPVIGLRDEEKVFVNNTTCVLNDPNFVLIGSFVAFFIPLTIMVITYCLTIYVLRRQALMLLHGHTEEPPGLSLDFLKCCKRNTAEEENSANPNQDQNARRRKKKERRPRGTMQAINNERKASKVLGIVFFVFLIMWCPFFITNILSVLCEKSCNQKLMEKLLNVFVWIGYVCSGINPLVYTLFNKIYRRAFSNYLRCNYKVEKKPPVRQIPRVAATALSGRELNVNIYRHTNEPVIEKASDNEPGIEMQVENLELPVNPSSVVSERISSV
ASSAY PROTOCOL: cell-based
Format: cell-based
TEST CONDITIONS: Table 3 panel; read-out: 5-HT2C EC50
MEASURED PARAMETER: pEC50
Note on pEC50: it is the negative log10 of concentration, concentration in mol/L.

Lookup: Record lookup: for 5-HT2C receptor (Homo sapiens), what pEC50 belongs to `CSc1ccccc1CNCCc1ccc(C#N)cc1O` ?
Found: 6.65

Lookup: Kindly state the measured pEC50 obtained for `COc1cc(C(F)(F)F)ccc1CCNCc1ccccc1O` with 5-HT2C receptor (Homo sapiens).
Found: 8.82
